Molecular target: T1, 4H3961-bH
T1 chain: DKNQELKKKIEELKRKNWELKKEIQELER
Test: two-hybrid library CCNG1;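 note: natural log of median RNA to DNA barcode read ratio; higher means stronger binding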
measuredAttribute: interaction score

Some solved entries appear below for comparison.
{"columns": ["binder", "resultNumber"],
 "data": [
  ["DKIQELKKENEELERKNWELKKEIQELER [4H2745-bH]", -0.688],
  ["DKNQELKKKIEELKREIWELEKENQELER [4H3907-bH]", -0.402]
]}

[1] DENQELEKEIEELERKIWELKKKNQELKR [4H1072-bH]
[2] DKIQELKKEIEELEREIWELEKKNQELKR [4H2568-bH]
[3] DEIQELEKKIEELKRKIWELKKENQELER [4H363-bH]
[4] DEIQELEKKIEELKRENWELEKKNQELKR [4H344-bH]
[5] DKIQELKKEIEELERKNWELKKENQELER [4H2619-bH]
Sequence the entries by interaction score, beginning with the highest number. List the labels in the requested order.
2, 4, 3, 1, 5
